B1: VH:VL chains; a variant is named by its letters at X, in order (parent)
chain 1: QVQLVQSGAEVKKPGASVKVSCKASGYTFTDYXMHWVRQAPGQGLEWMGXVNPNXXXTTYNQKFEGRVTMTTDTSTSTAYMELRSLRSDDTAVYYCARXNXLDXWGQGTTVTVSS
chain 2: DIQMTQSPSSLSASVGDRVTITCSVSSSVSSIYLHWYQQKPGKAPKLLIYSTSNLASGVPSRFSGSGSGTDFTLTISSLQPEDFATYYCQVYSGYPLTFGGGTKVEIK

- Variants of: B1
- method-notes: yeast display scFab, FACS + sequencing
- condition-description: with MET
This is one part of the list. How many sequences the whole screen found active is unknown.
attribute-measured: antigen binding call

The examples below pair each entry with its known result.
- mutant-label: "FRTEGSGY"
  result: "binds"
- mutant-label: "DAERDSGV"
  result: "no binding"
- mutant-label: "YRREGSLD"
  result: "binds"
- mutant-label: "VTAGDDAV"
  result: "no binding"

(Q) Consider the variant FAEGAAGD . State its measured antigen binding call.
(A) no binding

(Q) Consider the variant DATGGDGY . State its measured antigen binding call.
(A) no binding

(Q) Consider the variant FKTRDFAY . State its measured antigen binding call.
(A) no binding

(Q) Consider the variant VETRSDVA . State its measured antigen binding call.
(A) no binding

(Q) Consider the variant YRGGTAAA . State its measured antigen binding call.
(A) binds

(Q) Consider the variant DTTKSSSS . State its measured antigen binding call.
(A) no binding

(Q) Consider the variant DRTGDSSS . State its measured antigen binding call.
(A) binds

(Q) Consider the variant DRGRDDAA . State its measured antigen binding call.
(A) no binding

(Q) Consider the variant VAATADSS . State its measured antigen binding call.
(A) binds

(Q) Consider the variant DRGGDSLD . State its measured antigen binding call.
(A) no binding

(Q) Consider the variant AARADDSA . State its measured antigen binding call.
(A) no binding

(Q) Consider the variant VREGSSAA . State its measured antigen binding call.
(A) no binding

(Q) Consider the variant YGAKGDGV . State its measured antigen binding call.
(A) no binding

(Q) Consider the variant FKTESAAV . State its measured antigen binding call.
(A) binds

(Q) Consider the variant ATGANAAV . State its measured antigen binding call.
(A) no binding

(Q) Consider the variant DKEGGDAS . State its measured antigen binding call.
(A) no binding
